# assayedSystem: Fatty acid synthase (Homo sapiens) (UniProt P49327)
# Sequence (P49327 whole entry, looked up, the tested form may be a part): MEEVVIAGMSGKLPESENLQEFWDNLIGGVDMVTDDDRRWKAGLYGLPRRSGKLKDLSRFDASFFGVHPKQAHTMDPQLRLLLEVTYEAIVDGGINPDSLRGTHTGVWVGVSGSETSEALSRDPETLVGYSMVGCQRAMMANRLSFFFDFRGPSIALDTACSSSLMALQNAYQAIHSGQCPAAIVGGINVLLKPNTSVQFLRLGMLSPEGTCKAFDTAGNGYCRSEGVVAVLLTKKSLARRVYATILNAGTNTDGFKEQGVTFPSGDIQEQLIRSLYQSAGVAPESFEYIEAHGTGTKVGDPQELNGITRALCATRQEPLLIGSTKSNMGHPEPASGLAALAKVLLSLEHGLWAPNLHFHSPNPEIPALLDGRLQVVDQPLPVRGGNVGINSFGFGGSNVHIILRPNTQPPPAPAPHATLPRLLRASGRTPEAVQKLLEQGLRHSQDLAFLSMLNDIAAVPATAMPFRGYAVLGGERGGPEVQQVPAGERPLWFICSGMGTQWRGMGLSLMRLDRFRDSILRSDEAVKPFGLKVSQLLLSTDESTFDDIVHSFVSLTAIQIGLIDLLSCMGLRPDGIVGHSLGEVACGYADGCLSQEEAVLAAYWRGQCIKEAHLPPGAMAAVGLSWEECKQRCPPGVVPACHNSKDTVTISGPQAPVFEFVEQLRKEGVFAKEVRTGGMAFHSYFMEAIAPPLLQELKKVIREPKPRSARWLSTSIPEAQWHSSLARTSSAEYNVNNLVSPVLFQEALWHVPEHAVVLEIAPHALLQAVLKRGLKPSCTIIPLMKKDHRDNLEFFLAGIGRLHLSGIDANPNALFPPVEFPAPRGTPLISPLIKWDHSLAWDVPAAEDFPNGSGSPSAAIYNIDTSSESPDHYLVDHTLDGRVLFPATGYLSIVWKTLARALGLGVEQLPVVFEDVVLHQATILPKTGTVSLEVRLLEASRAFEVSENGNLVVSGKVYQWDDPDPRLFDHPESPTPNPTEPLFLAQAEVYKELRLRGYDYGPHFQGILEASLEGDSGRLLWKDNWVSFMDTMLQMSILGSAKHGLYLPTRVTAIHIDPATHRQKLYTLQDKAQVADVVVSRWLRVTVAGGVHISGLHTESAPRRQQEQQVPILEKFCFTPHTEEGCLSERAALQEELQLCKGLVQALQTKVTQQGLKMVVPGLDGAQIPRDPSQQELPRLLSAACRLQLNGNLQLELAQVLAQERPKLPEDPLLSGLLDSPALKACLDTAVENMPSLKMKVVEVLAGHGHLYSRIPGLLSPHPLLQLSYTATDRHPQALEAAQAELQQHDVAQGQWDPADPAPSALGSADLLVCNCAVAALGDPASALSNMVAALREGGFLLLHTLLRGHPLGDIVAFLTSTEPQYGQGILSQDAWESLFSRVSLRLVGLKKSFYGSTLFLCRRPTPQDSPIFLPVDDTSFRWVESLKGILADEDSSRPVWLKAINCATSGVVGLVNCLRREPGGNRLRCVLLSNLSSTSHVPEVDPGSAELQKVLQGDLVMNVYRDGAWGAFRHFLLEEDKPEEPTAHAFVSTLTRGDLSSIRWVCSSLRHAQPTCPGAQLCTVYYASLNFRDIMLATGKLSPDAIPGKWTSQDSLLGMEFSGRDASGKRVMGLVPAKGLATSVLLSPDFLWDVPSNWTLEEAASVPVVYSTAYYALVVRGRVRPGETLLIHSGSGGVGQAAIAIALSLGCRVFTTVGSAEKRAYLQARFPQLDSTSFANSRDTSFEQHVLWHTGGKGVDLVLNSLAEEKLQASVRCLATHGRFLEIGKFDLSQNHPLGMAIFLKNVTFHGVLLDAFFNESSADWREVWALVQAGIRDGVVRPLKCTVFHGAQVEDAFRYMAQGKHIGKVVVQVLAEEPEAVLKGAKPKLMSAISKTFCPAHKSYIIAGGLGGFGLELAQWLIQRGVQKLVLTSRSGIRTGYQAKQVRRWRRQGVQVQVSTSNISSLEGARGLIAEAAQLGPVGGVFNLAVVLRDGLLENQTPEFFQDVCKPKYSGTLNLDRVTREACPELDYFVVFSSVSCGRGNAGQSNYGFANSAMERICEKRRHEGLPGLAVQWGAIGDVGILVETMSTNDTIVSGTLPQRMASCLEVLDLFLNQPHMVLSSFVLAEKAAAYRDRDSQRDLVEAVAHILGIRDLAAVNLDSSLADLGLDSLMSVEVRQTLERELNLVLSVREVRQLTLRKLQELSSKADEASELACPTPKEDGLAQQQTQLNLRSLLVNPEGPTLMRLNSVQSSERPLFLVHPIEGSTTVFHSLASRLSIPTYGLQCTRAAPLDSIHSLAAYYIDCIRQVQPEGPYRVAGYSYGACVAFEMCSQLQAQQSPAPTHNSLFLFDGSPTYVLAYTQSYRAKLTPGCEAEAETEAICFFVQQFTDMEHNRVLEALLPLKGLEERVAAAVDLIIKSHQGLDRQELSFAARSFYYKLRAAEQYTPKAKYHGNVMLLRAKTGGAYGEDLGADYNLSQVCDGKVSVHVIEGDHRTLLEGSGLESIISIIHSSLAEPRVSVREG
# assayProtocol: FAS thioesterase domain inhibitors, dose response, biochemical, fluorescence intensity, OMFH substrate (AID 1347040)
# protocolConditions: recombinant FAS-TE, OMFH fluorogenic substrate
The source made the active and inactive calls.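 Rule for the calls: active = IC50 at or below 20 µM (some results past the limit were not filed as active); inactive = the rest.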
Reply using exactly one outcome from active, inactive

Example entries and their recorded answers appear below.
smilesText: CCN(CC)S(=O)(=O)c1ccc(-c2csc(Cc3ccccc3OC)n2)cc1
labelValue: active
--
smilesText: O=C(Cc1ccc(S(=O)(=O)N2CCOCC2)s1)NCc1ccccc1
labelValue: inactive
--
smilesText: CCN(CC)S(=O)(=O)c1ccc(-c2csc(Cc3cccc(C(F)(F)F)c3)n2)cc1
labelValue: active
--
smilesText: CCc1nc(-c2ccc(S(=O)(=O)N(CC)CC)cc2)cs1
labelValue: active
--
smilesText: CCN(CC)S(=O)(=O)c1ccc(-c2csc(-c3ccc(F)cc3)n2)cc1
labelValue: active

Kindly review the next compound as well.
# input What is the recorded call for this compound in the test? `Cc1cc(C)c(S(=O)(=O)N2CCN(C(=O)Cc3ccc(S(=O)(=O)N4CCOCC4)s3)CC2)c(C)c1`
# output active
